- Test system: hNMUR1 (Homo sapiens, UniProt Q9HB89)
- Sequence (Q9HB89 whole entry): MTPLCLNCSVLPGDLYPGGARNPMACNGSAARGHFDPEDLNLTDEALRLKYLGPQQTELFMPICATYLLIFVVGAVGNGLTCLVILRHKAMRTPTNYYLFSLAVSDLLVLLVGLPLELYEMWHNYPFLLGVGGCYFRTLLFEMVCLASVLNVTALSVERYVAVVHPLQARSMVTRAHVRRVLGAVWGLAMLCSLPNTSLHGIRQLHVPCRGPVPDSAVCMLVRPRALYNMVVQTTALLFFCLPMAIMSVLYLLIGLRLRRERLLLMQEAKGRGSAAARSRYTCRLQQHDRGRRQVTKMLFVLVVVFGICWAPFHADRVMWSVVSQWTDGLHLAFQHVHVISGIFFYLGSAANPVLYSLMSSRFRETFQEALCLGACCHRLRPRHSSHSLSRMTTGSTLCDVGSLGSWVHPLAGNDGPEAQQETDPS
- Protocol notes: 125I-hNMU-25 binding assay, human NMUR1 membranes
- Parameters: expressed in transfected cells; host or cells: HEK-293 FLP-In cells (pcDNA5); HEK-293/aeq17 lines (pIRES-puro) were also made; concentration or dose not given beside the values
- Particulars: Table 9, HEK-hR1, binding
Non-standard residues stand in square brackets, D forms with d. Residues, ends and D or L forms follow the SMILES beside them. hArg = N=C(N)NCCCC[C@H](N)C(=O)O; dNle = CCCC[C@@H](N)C(=O)O
Measured endpoint: % Activity (%)
One number for each entry, in %.

Some molecules with recorded % Activity:
[[record]]
molecule = "CC(C)C[C@H](NC(=O)[C@H](Cc1c[nH]c2ccccc12)NC(=O)[C@@H](N)Cc1ccccc1)C(=O)N[C@@H](Cc1ccccc1)C(=O)N[C@@H](CCCNC(=N)N)C(=O)N1CCC[C@H]1C(=O)N[C@@H](CCCCNC(=N)N)C(=O)N[C@@H](CC(N)=O)C(N)=O [Agonist I, FWLFRP-(Harg)-N-CONH2] (H-FWLFRP[hArg]N-NH2)"
value_observed = 23

[[record]]
molecule = "CC(C)C[C@H](NC(=O)[C@H](Cc1c[nH]c2ccccc12)NC(=O)[C@@H](N)Cc1ccccc1)C(=O)N[C@@H](Cc1ccccc1)C(=O)N[C@@H](CCCNC(=N)N)C(=O)N[C@@H](C)C(=O)N[C@@H](CCCCNC(=N)N)C(=O)N[C@@H](CC(N)=O)C(N)=O [Agonist J, FWLFRA-(Harg)-N-CONH2] (H-FWLFRA[hArg]N-NH2)"
value_observed = 34

[[record]]
molecule = "CC(C)C[C@H](NC(=O)[C@H](Cc1ccccc1)NC(=O)[C@@H](N)Cc1ccc(O)cc1)C(=O)N[C@@H](Cc1ccccc1)C(=O)N[C@@H](CCCNC(=N)N)C(=O)N1CCC[C@H]1C(=O)N[C@@H](CCCNC(=N)N)C(=O)N[C@@H](CC(N)=O)C(N)=O [NMU-8, reference compound]"
value_observed = 100


Now take the following molecule into account.
# molecule CCCC[C@@H](NC(=O)[C@H](CCCNC(=N)N)NC(=O)[C@H](C)NC(=O)[C@H](CCCNC(=N)N)NC(=O)[C@H](Cc1ccccc1)NC(=O)[C@H](CC(C)C)NC(=O)[C@H](Cc1ccccc1)NC(=O)[C@@H](N)Cc1c[nH]c2ccccc12)C(N)=O [Agonist K, WFLFRAR-(D-Nle)-CONH2] (H-WFLFRAR[dNle]-NH2) ; its % Activity = 25
